Target: IRAK4 enzyme (Homo sapiens (Human))
Sequence (Q9NWZ3 whole entry): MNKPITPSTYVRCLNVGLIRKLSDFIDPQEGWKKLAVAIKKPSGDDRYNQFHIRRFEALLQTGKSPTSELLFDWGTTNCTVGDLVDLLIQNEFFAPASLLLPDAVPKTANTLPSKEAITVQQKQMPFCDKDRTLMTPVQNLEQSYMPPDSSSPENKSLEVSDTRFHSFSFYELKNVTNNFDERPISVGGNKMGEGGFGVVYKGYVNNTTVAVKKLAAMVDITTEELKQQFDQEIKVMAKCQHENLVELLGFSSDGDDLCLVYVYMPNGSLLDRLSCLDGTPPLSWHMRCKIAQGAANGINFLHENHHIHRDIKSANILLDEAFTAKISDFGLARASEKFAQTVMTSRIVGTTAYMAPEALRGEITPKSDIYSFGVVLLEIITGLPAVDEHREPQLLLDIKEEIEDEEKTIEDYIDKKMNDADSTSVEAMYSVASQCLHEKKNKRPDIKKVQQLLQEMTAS
Assay: biochemical
Type: biochemical
Details: IRAK4 enzyme, TR-FRET (HTRF), 500 μM ATP
pIC50: −log10 of the molar value.
property.label: pIC50

INSERT INTO measurements (molecule, observed_result) VALUES
  ('CC(C)Nc1cc(-c2ccc3cc(C#N)cnn23)ncc1C(=O)NC[C@@H](F)C(C)(C)F', '> 9.00'),
  ('N#Cc1cnn2c(-c3cc(NC45CCC(O)(CC4)CC5)c(C(=O)NC4CCC(NC(=O)C5CC5)CC4)cn3)ccc2c1 (stereo not drawn)', '> 9.00'),
  ('CN(C)c1ncc(Nc2cc(-c3ccc4cc(C#N)cnn34)ncc2C(=O)NC[C@@H](F)C(C)(C)O)cn1', '> 9.00'),
  ('CC(C)(O)[C@H](F)CNC(=O)c1cnc(-c2ccc3cc(C#N)cnn23)cc1NC1CC(Cc2cnco2)C1 (stereo partly drawn) [Example 636]', '> 9.00'),
  ('CC(C)(O)[C@H](F)CNC(=O)c1cnc(-c2ccc3cc(C#N)cnn23)cc1NC1CC2(CNC(=O)O2)C1 (stereo partly drawn)', '> 9.00'),
  ('CC(C)(O)[C@H](F)CNC(=O)c1cnc(-c2ccc3cc(C#N)cnn23)cc1N[C@H]1C[C@H](CNC2COC2)C1', '> 9.00'),
  ('CNC(=O)NC[C@H]1C[C@H](Nc2cc(-c3ccc4cc(C#N)cnn34)ncc2C(=O)NC[C@@H](F)C(C)(C)O)C1', '> 9.00'),
  ('COC(=O)NCCCCNc1cc(-c2ccc3cc(C#N)cnn23)ncc1C(=O)NC[C@@H](F)C(C)(C)O', '> 9.00'),
  ('CC(C)(O)[C@H](F)CNC(=O)c1cnc(-c2ccc3cc(C#N)cnn23)cc1Nc1ccc(-n2ccnc2)cc1', '> 9.00'),
  ('CC(C)(O)[C@H](F)CNC(=O)c1cnc(-c2ccc3cc(C#N)cnn23)cc1Nc1ccc2nc[nH]c2c1', '> 9.00'),
  ('CC(C)(O)[C@H](F)CNC(=O)c1cnc(-c2ccc3cc(C#N)cnn23)cc1N[C@H]1C[C@H](CNC(=O)OCC(F)(F)F)C1', '> 9.00'),
  ('N#Cc1cnn2c(-c3cc(NC45CCC(O)(CC4)CC5)c(C(=O)NCC(=O)N4CC(F)C4)cn3)ccc2c1', '> 9.00'),
  ('CNC(=O)c1cnc(-c2ccc3cc(C#N)cnn23)cc1N[C@H]1CCC[C@@H](C(=O)NC)C1', 7.60),
  ('Cc1ncc(C2CCC(Nc3cc(-c4ccc5cc(C#N)cnn45)ncc3C(=O)NC[C@@H](F)C(C)(C)O)CC2)o1 (single isomer, unassigned) [Example 645]', 8.00),
  ('CNC(=O)c1cnc(-c2ccc3cc(C#N)cnn23)cc1NC12CCC(C(=O)N3CC(F)(F)C3)(CC1)CC2', 9.00);

* * *

Biological target: IRAK4 enzyme (Homo sapiens (Human))
Assay: biochemical
Type: biochemical
Conditions: IRAK4 enzyme, TR-FRET (HTRF), 500 μM ATP
property.label: IC50

INSERT INTO measurements (compound, property_label, observed_result) VALUES
  ('CC(C)(O)[C@H](F)CNC(=O)c1cnc(-c2ccc3cc(C#N)cnn23)cc1Nc1ccccc1 [Example 589]', 'IC50', '< 1 nM'),
  ('COc1ccc(Nc2cc(-c3ccc4cc(C#N)cnn34)ncc2C(=O)NC[C@@H](F)C(C)(C)O)cn1 [Example 602]', 'IC50', '< 1 nM'),
  ('COC(=O)N1CC[C@H](CNC(=O)c2cnc(-c3ccc4cc(C#N)cnn34)cc2NC23CCC(O)(CC2)CC3)C1 [Example 741]', 'IC50', '< 1 nM'),
  ('CC1(O)CC2(CC(Nc3cc(-c4ccc5cc(C#N)cnn45)ncc3C(=O)NC[C@@H](F)C(C)(C)O)C2)C1 (stereo partly shown) [Example 510]', 'IC50', '< 1 nM');
